target: Cyclin-dependent kinase 1/G2/mitotic-specific cyclin-B (Marthasterias glacialis, UniProt P15206+Q9DGD3)
Sequence (Q9DGD3 whole entry): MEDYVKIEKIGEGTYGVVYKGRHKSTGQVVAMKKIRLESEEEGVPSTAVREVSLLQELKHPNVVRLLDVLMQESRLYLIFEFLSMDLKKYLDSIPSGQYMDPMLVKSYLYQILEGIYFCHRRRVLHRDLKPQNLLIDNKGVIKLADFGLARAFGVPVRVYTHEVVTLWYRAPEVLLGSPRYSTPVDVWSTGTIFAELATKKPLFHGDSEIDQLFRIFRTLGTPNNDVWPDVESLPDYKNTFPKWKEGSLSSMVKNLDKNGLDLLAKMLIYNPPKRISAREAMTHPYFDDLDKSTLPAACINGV
Sequence (P15206 whole entry): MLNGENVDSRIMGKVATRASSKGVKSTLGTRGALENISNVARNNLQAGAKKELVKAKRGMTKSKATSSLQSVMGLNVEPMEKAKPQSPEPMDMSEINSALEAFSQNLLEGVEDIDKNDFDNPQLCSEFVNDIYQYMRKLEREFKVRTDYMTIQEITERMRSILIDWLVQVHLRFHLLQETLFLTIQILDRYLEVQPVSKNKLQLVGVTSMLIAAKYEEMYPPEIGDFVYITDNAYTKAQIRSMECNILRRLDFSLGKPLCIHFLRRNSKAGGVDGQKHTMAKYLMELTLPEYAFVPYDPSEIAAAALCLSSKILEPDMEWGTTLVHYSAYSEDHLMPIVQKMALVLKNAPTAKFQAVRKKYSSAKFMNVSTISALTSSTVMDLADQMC
protocol-summary: Kinase Inhibition Assay
measurement-conditions: pH 7.2; 30 °C
property-name: IC50

Take a look at these entries with their results.
{"columns": ["record-smiles", "IC50"],
 "data": [
  ["Nc1n[nH]c2nnc(-c3ccc([N+](=O)[O-])cc3)c(-c3ccc([N+](=O)[O-])cc3)c12", "> 50 µM"],
  ["Nc1n[nH]c2nnc(-c3ccccc3)cc12", "4 µM"],
  ["Nc1ccc(-c2nnc3[nH]nc(N)c3c2-c2ccc(N)cc2)cc1", "> 50 µM"],
  ["COc1ccc(-c2nnc3[nH]nc(N)c3c2-c2ccc(OC)cc2)cc1", "15 µM"],
  ["Cc1n[nH]c2nnc(N)c-2c1C", "> 50 µM"]
]}

Could you tell me which IC50 is on file for "Nc1n[nH]c2nnc(-c3ccc(C(F)(F)F)cc3)c(-c3ccc(C(F)(F)F)cc3)c12" ?
> 50 µM

Could you tell me which IC50 is on file for "Nc1n[nH]c2nnc(-c3ccccn3)c(-c3ccccn3)c12" ?
> 50 µM

Could you tell me which IC50 is on file for "Cc1n[nH]c2nnc(N)c-2c1-c1ccccc1" ?
> 50 µM

Could you tell me which IC50 is on file for "CC(C)(C)c1ccc(-c2nnc3[nH]nc(N)c3c2-c2ccc(C(C)(C)C)cc2)cc1" ?
> 50 µM
